Below, each of the molecules is paired with its reported IC50 value.
biological target: human MGL from HeLa cells (Homo sapiens (Human)); assay: MGL in vitro activity assay ([glycerol-1,3-3H]-oleoyl glycerol hydrolysis, activated carbon filtration); conditions: 300 nM [Glycerol-1,3-3H]-oleoyl glycerol, one hour
Sequence (Q99685 whole entry): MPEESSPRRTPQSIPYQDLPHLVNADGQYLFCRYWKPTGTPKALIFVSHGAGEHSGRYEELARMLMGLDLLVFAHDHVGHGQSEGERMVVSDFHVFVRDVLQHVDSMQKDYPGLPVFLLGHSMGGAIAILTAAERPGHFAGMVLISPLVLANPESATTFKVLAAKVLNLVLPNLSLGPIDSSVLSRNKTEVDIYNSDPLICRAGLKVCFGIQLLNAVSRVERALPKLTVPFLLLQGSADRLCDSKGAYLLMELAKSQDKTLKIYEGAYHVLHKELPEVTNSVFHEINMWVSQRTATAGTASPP
The reply should be a number in nM, with the unit left off.

Before answering, review these 2 worked examples.
molecule	outputUnit	IC50
COc1ccccc1CC1CC2(C1)CN(C(=O)[C@H]1C[C@@](C)(O)C1)C2 [Example 216]	nM	12
CCc1cnc(OC2CCC3(CC2)CN(C(=O)[C@H]2C[C@@](C)(O)C2)C3)c(F)c1 [Example 433]	nM	14

[in] Which IC50 reading was recorded for the molecule Cc1cc(OC(C)C)nc(C2CCC3(CC2)CN(C(=O)[C@H]2C[C@@](C)(O)C2)C3)c1 [Example 374] ?
[out] 9.3
